# inhibition at 50 µg/mL per entry
System: Mycobacterium tuberculosis
Experiment: Antimycobacterial activity against Mycobacterium bovis BCG at 50 ug/mL by microplate Alamar blue assay
Format: functional
Details: variant bovis BCG
Report the value in % with no unit label.

CCCCCCCCCCC#Cc1cn([C@@H]2O[C@H](CO)[C@@H](O)[C@H]2F)c(=O)[nH]c1=O; 100
CCCc1ccc(C#Cc2cn([C@@H]3O[C@H](CO)[C@@H](O)[C@@H]3O)c(=O)[nH]c2=O)cc1; 50
CCCCCCCCCCCCC#Cc1cn([C@@H]2O[C@H](CO)[C@@H](O)[C@@H]2O)c(=O)[nH]c1=O; 100
CCCCCCCCCCCC#Cc1cn([C@@H]2O[C@H](CO)[C@@H](O)[C@@H]2O)c(=O)[nH]c1=O; 100
CCCCCCCCC#Cc1cn([C@@H]2O[C@H](CO)[C@@H](O)[C@@H]2O)c(=O)[nH]c1=O; 50
CCCCCCCCCCC#Cc1cn([C@@H]2O[C@H](CO)[C@@H](O)[C@@H]2O)c(=O)[nH]c1=O; 100
CCCCCCCCC#Cc1cn([C@@H]2O[C@H](CO)[C@@H](O)[C@H]2F)c(=O)[nH]c1=O; 75
CCCCCCCCCCCC#Cc1cn([C@@H]2O[C@H](CO)[C@@H](O)[C@H]2F)c(=O)[nH]c1=O; 100

Memo: `O=c1[nH]c(=O)n([C@@H]2O[C@H](CO)[C@@H](O)[C@H]2F)cc1Cl` , reported inhibition at 50 µg/mL: 50

Memo: `CCCCCCCCCCCCC#Cc1cn([C@@H]2O[C@H](CO)[C@@H](O)[C@H]2F)c(=O)[nH]c1=O` , reported inhibition at 50 µg/mL: 100

----------
# inhibition at 10 µg/mL per entry
System: Mycobacterium tuberculosis
Experiment: Antimycobacterial activity against Mycobacterium bovis BCG at 10 ug/mL by microplate Alamar blue assay
Type: functional
Details: variant bovis BCG
Report the value in % with no unit label.

Memo: `CCCCCCCCCCCC#Cc1cn([C@@H]2O[C@H](CO)[C@@H](O)[C@H]2F)c(=O)[nH]c1=O` , reported inhibition at 10 µg/mL: 100

Memo: `CCCCCCCCCCCC#Cc1cn([C@@H]2O[C@H](CO)[C@@H](O)[C@@H]2O)c(=O)[nH]c1=O` , reported inhibition at 10 µg/mL: 50

Memo: `CCCCCCCCCCCCC#Cc1cn([C@@H]2O[C@H](CO)[C@@H](O)[C@H]2F)c(=O)[nH]c1=O` , reported inhibition at 10 µg/mL: 50

Memo: `CCCCCCCCC#Cc1cn([C@@H]2O[C@H](CO)[C@@H](O)[C@@H]2O)c(=O)[nH]c1=O` , reported inhibition at 10 µg/mL: 30

Memo: `CCCCCCCCCCCCC#Cc1cn([C@@H]2O[C@H](CO)[C@@H](O)[C@@H]2O)c(=O)[nH]c1=O` , reported inhibition at 10 µg/mL: 50

Memo: `CCCCCCCCCCC#Cc1cn([C@@H]2O[C@H](CO)[C@@H](O)[C@@H]2O)c(=O)[nH]c1=O` , reported inhibition at 10 µg/mL: 100

Memo: `CCCCCCCCC#Cc1cn([C@@H]2O[C@H](CO)[C@@H](O)[C@H]2F)c(=O)[nH]c1=O` , reported inhibition at 10 µg/mL: 50

Memo: `CCCCCCCCCCC#Cc1cn([C@@H]2O[C@H](CO)[C@@H](O)[C@H]2F)c(=O)[nH]c1=O` , reported inhibition at 10 µg/mL: 100
